Target: human recombinant Monoacylglycerol Lipase (Homo sapiens, UniProt Q99685)
Sequence (Q99685 whole entry): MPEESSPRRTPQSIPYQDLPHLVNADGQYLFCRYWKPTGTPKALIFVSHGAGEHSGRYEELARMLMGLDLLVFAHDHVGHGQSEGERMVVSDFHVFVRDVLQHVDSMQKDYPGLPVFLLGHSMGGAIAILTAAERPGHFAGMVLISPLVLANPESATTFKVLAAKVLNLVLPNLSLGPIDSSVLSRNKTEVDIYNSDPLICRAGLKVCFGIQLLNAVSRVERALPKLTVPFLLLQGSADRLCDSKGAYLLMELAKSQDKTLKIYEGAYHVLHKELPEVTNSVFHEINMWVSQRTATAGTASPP
Assay: MAGL inactivation (kinact/KI from enzyme progress curves, T=0 min protocol)
Conditions: from plot of Kobs vs. compound concentration, geometric mean of 2-5 determinations (b: ≥6)
// reported MAGL kinact/KI for each item listed

Example entries begin here.
{"columns": ["Molecule", "MAGL kinact/KI"],
 "data": [
  ["O=C(O[C@H](CO)C(F)(F)F)N1CCC2(CC1)CC(Oc1ccc(C(F)F)cn1)C2 [Example 85]", "42100 1/s per M"],
  ["COc1cc(C2CC3(CCN(C(=O)O[C@H](CO)C(F)(F)F)CC3)C2)ccn1 [Example 47]", "17100 1/s per M"],
  ["O=C(O[C@H](CO)C(F)(F)F)N1CCC2(CC1)CC(n1ccc(C(F)(F)F)n1)CO2 (single isomer, unassigned) [Example 53]", "66900 1/s per M"]
]}

Ask: Identify MAGL kinact/KI associated with the molecule O=C(O[C@H](CO)C(F)(F)F)N1CCC2(CC1)CC(Cn1cc(C(F)(F)F)cn1)CO2 (single isomer, unassigned) [Example 3]
Reply: 10300 1/s per M

Ask: Note MAGL kinact/KI for the molecule shown: CC(C)(C)c1cnn(C2COC3(CCN(C(=O)O[C@H](CO)C(F)(F)F)CC3)C2)c1 (single isomer, unassigned) [Example 21]
Reply: 24400 1/s per M

Ask: Specify MAGL kinact/KI for O=C(O[C@H](CO)C(F)(F)F)N1CCC2(CC1)CC(c1ccc(C(F)F)nc1)CO2 (single isomer, unassigned) [Example 36] and stop.
Reply: 1440 1/s per M

Ask: Return MAGL kinact/KI (reported value) for this molecule: N#Cc1ccc([C@H]2COC3(CCN(C(=O)O[C@H](CO)C(F)(F)F)CC3)C2)cc1F [Example 27]
Reply: 22800 1/s per M

* * *

Biological target: human recombinant Monoacylglycerol Lipase (Homo sapiens, UniProt Q99685)
Test: MAGL enzymatic assay (IC50; 7-HCA substrate added at T=0 min or T=30 min)
Format: biochemical
Details: MAGL (T = 30 min) IC50, substrate 7-HCA added after 30 minute incubation (T=30 min); geometric mean of 2-5 determinations unless otherwise indicated
Parameter measured: IC50 (nM)

Example results:
{"columns": ["Compound", "Value units", "IC50"],
 "data": [
  ["O=C(O[C@H](CO)C(F)(F)F)N1CCC2(CC1)CC(c1ccc(F)cn1)C2 [Example 2]", "nM", 2],
  ["Cc1nn(C2CC3(CCN(C(=O)O[C@H](CO)C(F)(F)F)CC3)C2)c(C)c1C [Example 65]", "nM", 4],
  ["N#Cc1ccc([C@H]2COC3(CCN(C(=O)O[C@H](CO)C(F)(F)F)CC3)C2)cc1F [Example 27]", "nM", 3],
  ["N#Cc1ccc(F)c(C2COC3(CCN(C(=O)O[C@H](CO)C(F)(F)F)CC3)C2)c1 (single isomer, unassigned) [Example 29]", "nM", 17]
]}

(A) O=C(O[C@H](CO)C(F)(F)F)N1CCC2(CC1)CC(Oc1ccccn1)C2 [Example 87]
(B) CN(C1CCOC2(CCN(C(=O)O[C@H](CO)C(F)(F)F)CC2)C1)S(=O)(=O)CC1CC1 (single isomer, unassigned) [Example 50]
Ask: Between A and B , whose measured IC50 reads higher? Your answer should be the label attached to the chosen record.
Reply: B
(B: 67 nM, A: 2 nM)

(I) O=C(O[C@H](CO)C(F)(F)F)N1CCC2(CC1)CC(Oc1ccc(F)cn1)C2 [Example 88]
(II) O=C(O[C@H](CO)C(F)(F)F)N1CCC2(CC1)CC(c1cccc(C(F)(F)F)n1)C2 [Example 76]
Ask: Among I and II , whose measured IC50 is the smaller figure? // output: label of the selected item
Reply: II

(P) O=C(O[C@H](CO)C(F)(F)F)N1CCC2(CC1)CC(n1cc(C3CC3)cn1)CO2 (mixture of isomers) [Example 23]
(Q) O=C(O[C@H](CO)C(F)(F)F)N1CCC2(CC1)CC(c1cccc(C(F)F)n1)C2 [Example 77]
Ask: I'm curious, which of these has a smaller IC50 number: P or Q ? Please reply using the label of the selected record.
Reply: Q
(Q: 0.6 nM, P: 9 nM)

(A) O=C(O[C@H](CO)C(F)(F)F)N1CCC2(CC1)CC(n1cc(C(F)F)cn1)CO2 (single isomer, unassigned) [Example 20]
(B) O=C(O[C@H](CO)C(F)(F)F)N1CCC2(CC1)CC(c1ccccn1)C2 [Example 81]
Ask: // compare measured IC50 between A and B ; output the lower one Returns: label corresponding to the selected item.
Reply: B
